TGI values for the molecules below.
System: COLO 205 colon
Test: NCI tumour cell line growth inhibition, 48 h
readout type: TGI (µM)

C=C1C(=O)O[C@H]2C1C[C@H](O)/C(C)=C/CC[C@@]1(C)O[C@H]21 (some centres not stated)	18.2
Nc1nc(N)c(CCCCc2ccccc2)c(/C=C/c2ccc([N+](=O)[O-])cc2)n1	47.6
COc1ccc2[nH]cc(Cc3c[nH]c4ccc(OC)cc34)c2c1	35.3
CCCn1cc(/C=N\N=C2\C(=O)Nc3ccc(C)cc32)c2ccccc21	3.06

---

System: TK-10 renal
Assay: NCI tumour cell line growth inhibition, 48 h
readout type: TGI

CN(C)C[C@@H]1CCn2cc(c3ccccc32)C2=C(C(=O)NC2=O)c2cn(c3ccccc23)CCO1	> 10 µM
CCCn1cc(/C=N\N=C2\C(=O)Nc3ccc(C)cc32)c2ccccc21	> 100 µM
COC(=O)N1C2C(C[C@@]1(C)C(=O)OC)c1ccccc1N2S(=O)(=O)c1ccccc1 (stereo partly specified)	> 100 µM
CCOC(OCC)[C@@H]1C[C@@H]2N(O[C@H](OC3CCCC3(c3ccccc3)c3ccccc3)[C@H](OC(C)=O)[C@@]2(CC)Cc2ccc(OC)c(OC)c2)O1 (stereo partly specified)	> 100 µM
COC(=O)/C(=N\Nc1nc(=S)[nH]n1N)C(C#N)c1ccc(Cl)cc1 (stereo unspecified)	> 100 µM
Nc1nc(N)c2c(-c3ccccc3)ccnc2n1	> 100 µM
